Experiment: chemical genetic growth profiling, strain panel (AID 1159580);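 further: tested at 20 µM; growth read once vehicle control cultures reached saturation at 30 °C; 1 = growth at the plate median or of vehicle wells; lower values mean less growth of the strain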
Settings: S. cerevisiae deletion strains, growth OD, locus YOR061W, strain CKA2, stronger effect = lower value
In all, about 5,500 compounds went through this assay and about 2,000 (36%) were called active. Roughly 18% stayed inconclusive and do not appear here. This is one part of the list.
Measurement type: normalized growth
// response body must contain only the number

{"columns": ["Compound", "normalized growth"],
 "data": [
  ["CCOC(=O)CSC(=S)NCc1ccc(C)cc1", 0.965],
  ["Cc1ccc2nc(-c3ccc(Cl)cc3)cn2c1", 0.948],
  ["CC(Oc1ccccc1)C(=O)N[C@@H]1C(=O)N2[C@@H]1SC(C)(C)[C@@H]2C(=O)O (stereo partly specified)", 1.02]
]}

**Query** Given the entry O=S(=O)(Nc1cccc(CCc2ccccn2)c1)c1cc(Cl)c(Cl)cc1Cl , report its measured normalized growth.
**Result** 0.978

**Query** Given the entry C=C(C)C1CNC(C(=O)O)C1CC(=O)O (stereo unspecified) , report its measured normalized growth.
**Result** 1.01

**Query** Given the entry COc1ccc(CN2CSC(=S)N(Cc3ccc(OC)cc3)C2)cc1 , report its measured normalized growth.
**Result** 0.939

**Query** Given the entry COc1cc(NS(=O)(=O)c2ccc(N)cc2)nc(OC)n1 , report its measured normalized growth.
**Result** 0.977

====

Test: chemical genetic growth profiling, strain panel (AID 1159580);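 further: tested at 20 µM; growth read once vehicle control cultures reached saturation at 30 °C; 1 = growth at the plate median or of vehicle wells; lower values mean less growth of the strain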
Conditions: S. cerevisiae deletion strains, growth OD, locus YLR370C, strain arc18
About 2,000 (36%) of roughly 5,500 compounds were called active. Another 18% or so got no clear call; they are omitted. Rule as the data show it: active = normalized growth mostly below about 0.91 (no sharp cut-off); inconclusive = no clear call, values can overlap the other calls; inactive = mostly above about 0.92. Some of the results follow.
Answer with one of the outcomes given here: active, inactive

Consider the worked cases shown below.
{"columns": ["Compound", "Answer label"],
 "data": [
  ["NC(=O)c1ccc[n+]([C@@H]2O[C@H](COP(=O)([O-])OP(=O)(O)OC[C@H]3O[C@@H](n4cnc5c(N)ncnc54)[C@H](O)[C@@H]3O)[C@@H](O)[C@H]2O)c1", "inactive"],
  ["N=c1ccn2c(n1)O[C@@H]1C2O[C@H](CO)[C@H]1O (stereo partly specified)", "inactive"],
  ["CC1=C(CC(=O)O)c2cc(F)ccc2/C1=C\\c1ccc(S(C)=O)cc1 (stereo unspecified)", "inactive"],
  ["Oc1cc(Cl)ccc1Oc1ccc(Cl)cc1Cl", "active"],
  ["CC(CCc1ccccc1)NC(C)C(O)c1ccc(O)cc1 (stereo unspecified)", "inactive"],
  ["OCCN1C[C@@H](O)[C@@H](O)C(O)C1CO (stereo partly specified)", "inactive"],
  ["CC(C(=O)O)c1ccc(-c2ccccc2)c(F)c1 (stereo unspecified)", "inactive"],
  ["COc1ccc2c(c1)OCc1c-2oc2cc(OC)ccc12", "inactive"]
]}

Turning now to a further record.
**Query** Per the assay record, what outcome was assigned to CC1CC2C3CCC4=CC(=O)C=C[C@]4(C)[C@@]3(F)[C@@H](O)C[C@]2(C)[C@@]1(O)C(=O)CO (stereo partly specified) ?
**Result** inactive

====

Assay: chemical genetic growth profiling, strain panel (AID 1159580);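 further: tested at 20 µM; growth read once vehicle control cultures reached saturation at 30 °C; 1 = growth at the plate median or of vehicle wells; lower values mean less growth of the strain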
Settings: S. cerevisiae deletion strains, growth OD, locus YEL061C, strain CIN8, stronger effect = lower value
In all, about 5,500 compounds went through this assay and about 2,000 (36%) were called active. Not shown: some 18% with an inconclusive outcome. This is one part of the list.
Measurement type: normalized growth
// response body must contain only the number

Consider the following illustrative entries.
{"columns": ["Molecule", "Result"],
 "data": [
  ["C=C1C2CC[C@H]3[C@]4(C)C[C@H](OC5OC(CO)C(OS(=O)(=O)O)C(OS(=O)(=O)O)C5OC(=O)CC(C)C)C[C@@H](C(=O)O)[C@H]4CC[C@]3(C2)[C@H]1O (some centres undefined)", 1],
  ["CNC(C)[C@H](O)c1ccccc1 (some centres undefined)", 1.02],
  ["CC(NCCc1ccc(O)cc1)C(O)c1ccc(O)cc1 (centres undefined)", 0.993],
  ["OCC(O)C(O)C(O)CO (centres undefined)", 1.01],
  ["C[N+](C)(C)CCOC(N)=O", 1],
  ["CCOC(=O)c1[nH]c(Cc2[nH]c(C(=O)OCC)c(C)c2C)c(C)c1C", 1.01]
]}

**Query** Given the entry CC(C)OC(=O)C(C)(C)Oc1ccc(C(=O)c2ccc(Cl)cc2)cc1 , report its measured normalized growth.
**Result** 1.01

**Query** Given the entry COc1ccccc1N1CCN(S(=O)(=O)c2cc(C)c(Cl)cc2C)CC1 , report its measured normalized growth.
**Result** 0.994

**Query** Given the entry Cc1ccc(C)c(NC(=S)N(CCc2ccccc2)CCc2ccccn2)c1 , report its measured normalized growth.
**Result** 0.953

**Query** Given the entry CCCCCCCCNC(C)C(O)c1ccc(SC(C)C)cc1 (centres undefined) , report its measured normalized growth.
**Result** 0.0482

**Query** Given the entry CC1CC2C3CCC4=CC(=O)C=C[C@]4(C)[C@@]3(F)[C@@H](O)C[C@]2(C)[C@@]1(O)C(=O)CO (some centres undefined) , report its measured normalized growth.
**Result** 0.994

**Query** Given the entry CCCc1cc(=O)c2ccc(O)cc2o1 , report its measured normalized growth.
**Result** 1
